- assayed target: human topo IIα (Homo sapiens, UniProt P11388)
- Construct: purchased Inspiralis (Norwich, U.K.)
- Sequence (P11388 whole entry): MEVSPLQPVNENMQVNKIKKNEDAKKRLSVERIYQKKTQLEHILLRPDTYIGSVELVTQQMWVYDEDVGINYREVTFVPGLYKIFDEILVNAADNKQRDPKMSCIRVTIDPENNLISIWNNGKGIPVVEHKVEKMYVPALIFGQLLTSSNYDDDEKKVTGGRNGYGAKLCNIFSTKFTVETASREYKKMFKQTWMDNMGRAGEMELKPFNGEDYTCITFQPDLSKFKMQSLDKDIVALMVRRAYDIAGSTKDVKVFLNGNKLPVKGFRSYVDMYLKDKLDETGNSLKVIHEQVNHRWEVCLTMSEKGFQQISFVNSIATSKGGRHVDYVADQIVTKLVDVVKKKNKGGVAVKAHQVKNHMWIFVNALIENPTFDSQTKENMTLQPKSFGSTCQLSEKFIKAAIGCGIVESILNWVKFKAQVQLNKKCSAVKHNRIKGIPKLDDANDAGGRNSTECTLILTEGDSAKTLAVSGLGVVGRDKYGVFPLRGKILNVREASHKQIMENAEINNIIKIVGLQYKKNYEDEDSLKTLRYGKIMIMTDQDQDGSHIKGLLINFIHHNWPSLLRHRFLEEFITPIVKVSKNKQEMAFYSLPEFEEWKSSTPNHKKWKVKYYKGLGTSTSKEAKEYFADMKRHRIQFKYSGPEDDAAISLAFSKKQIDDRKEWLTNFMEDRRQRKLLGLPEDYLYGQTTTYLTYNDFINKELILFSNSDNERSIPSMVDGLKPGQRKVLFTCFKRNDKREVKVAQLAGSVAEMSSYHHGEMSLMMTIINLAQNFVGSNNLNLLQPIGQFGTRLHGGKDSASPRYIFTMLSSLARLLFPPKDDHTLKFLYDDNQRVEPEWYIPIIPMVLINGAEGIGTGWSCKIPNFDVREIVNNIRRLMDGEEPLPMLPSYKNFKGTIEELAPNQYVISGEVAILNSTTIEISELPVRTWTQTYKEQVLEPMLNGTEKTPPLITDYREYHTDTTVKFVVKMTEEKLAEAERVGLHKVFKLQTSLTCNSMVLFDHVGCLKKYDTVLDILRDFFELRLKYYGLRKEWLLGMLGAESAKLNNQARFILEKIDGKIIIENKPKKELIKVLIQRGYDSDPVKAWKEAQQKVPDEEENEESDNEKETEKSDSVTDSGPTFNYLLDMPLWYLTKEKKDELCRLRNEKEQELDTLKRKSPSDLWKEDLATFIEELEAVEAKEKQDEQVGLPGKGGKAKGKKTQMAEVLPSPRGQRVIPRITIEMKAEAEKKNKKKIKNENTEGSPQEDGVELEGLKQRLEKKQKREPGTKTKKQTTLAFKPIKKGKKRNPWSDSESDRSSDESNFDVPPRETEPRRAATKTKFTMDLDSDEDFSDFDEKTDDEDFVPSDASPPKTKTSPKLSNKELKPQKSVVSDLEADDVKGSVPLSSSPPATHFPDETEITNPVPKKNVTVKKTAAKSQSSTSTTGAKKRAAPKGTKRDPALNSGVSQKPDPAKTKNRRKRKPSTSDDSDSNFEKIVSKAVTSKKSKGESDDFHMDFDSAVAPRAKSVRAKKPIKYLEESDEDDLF
- assay comment: Human topoisomerase II competitive ATPase assay
- Type: biochemical
- measurement conditions: ATP 0.025 (mM per method); fit R^2 0.474; read-out: IC50 at c(ATP) 0.025
reported metric: IC50 (mM)
Numbers only, in mM.

Output IC50 of Cc1nc(N)sc1-c1csc(Nc2ccc(C(F)(F)F)cc2)n1
0.0038

---

- assayed target: human topo IIα (Homo sapiens)
- Construct: purchased Inspiralis (Norwich, U.K.)
- assay comment: Human topoisomerase II competitive ATPase assay
- Assay type: biochemical
- measurement conditions: ATP 0.75 (mM per method); read-out: IC50 at c(ATP) 0.75
reported metric: IC50 (mM)
Give bare numbers, in mM.

Output IC50 of Cc1nc(N)sc1-c1csc(Nc2ccc(C(F)(F)F)cc2)n1 [Compound 1]
0.0178

Reference source for all entries: paper PMC7469689
